Test system: CAKI-1 renal
Assay: NCI tumour cell line growth inhibition, 48 h
TEST READOUT: TGI

>  <MOLECULE>
COC(=O)/C(=N\NC(N)=O)C(C(=O)C=C(C)C)C(=O)C(=O)Nc1ccc(Cl)c(Cl)c1 (stereo unspecified)

>  <TGI>
> 100 µM

$$$$
>  <MOLECULE>
CCOC(=O)C(=O)NC12CC3CC(CC(C3)C1)C2

>  <TGI>
> 100 µM

$$$$
>  <MOLECULE>
Cn1c2ccccc2c2c(=O)n(CCCC(=O)OC(=NC3CCCCC3)NC3CCCCC3)c3c(-c4ccccc4)nnn3c21

>  <TGI>
> 100 µM

$$$$
>  <MOLECULE>
CCO/C(Cc1ccc(Cl)cc1)=N/NC(N)=S

>  <TGI>
> 100 µM

$$$$
>  <MOLECULE>
N#Cc1c(O)c2ccccc2[nH]c1=O

>  <TGI>
> 100 µM

$$$$
>  <MOLECULE>
COc1cc(/C=C2/C(=O)N(C(=O)OCc3ccccc3)C(Cc3cc(OC)c(OC)c(C)c3OC)C(=O)N2Cc2ccccc2)c(OC)c(C)c1OC (stereo unspecified)

>  <TGI>
> 100 µM

$$$$
>  <MOLECULE>
COc1ccc2nc(NC(=O)C(=O)NNC(=O)c3ccncc3)sc2c1

>  <TGI>
> 100 µM

$$$$
>  <MOLECULE>
O=c1c2c(F)c(F)c(F)c(F)c2sc2nccn12

>  <TGI>
33.3 µM

$$$$

In: So what's the measured TGI for this one? COc1cc2c[n+](C)c3c(c2cc1OC)Cc1cc2c(cc1-3)OCO2
Out: > 100 µM

In: So what's the measured TGI for this one? Cc1ccc(S(=O)(=O)Nc2ccc(-c3cc(-c4cccc(F)c4)c(C#N)c(N)n3)cc2)cc1
Out: 3.16 µM

In: So what's the measured TGI for this one? COc1cc2ccc1OCc1cccc(n1)COc1ccc(cc1OC)C=NCCNCCN=C2
Out: > 100 µM

In: So what's the measured TGI for this one? CCCCCCCCC/C=C1/CC(CO)(COC(=O)c2ccccc2)OC1=O (stereo unspecified)
Out: 24.8 µM

In: So what's the measured TGI for this one? O=[N+]([O-])C(=C/c1cccs1)/C(=C\c1cccs1)[N+](=O)[O-]
Out: 1.41 µM

In: So what's the measured TGI for this one? FC(F)(F)c1cc(Nc2ccc3cc(OCCCN4CCOCC4)ccc3n2)ccc1Cl
Out: 3.44 µM

In: So what's the measured TGI for this one? COc1ccc(OC)c(/C=C/c2nc(SCc3ccccc3)n(-c3ccc(Cl)cc3)n2)c1
Out: 5.28 µM

---

Tested on: HOP-62 NSCLC
Test: NCI tumour cell line growth inhibition, 48 h
TEST READOUT: TGI (µM)
Write the value in µM as a bare number.

>  <SAMPLE SMILES>
CN1CCN(Cc2cc(NC(=O)c3cccc(C#Cc4cccc5[nH]nc(N)c45)c3)cc(C(F)(F)F)c2)CC1

>  <RESULT UNIT>
µM

>  <ENDPOINT VALUE>
3

$$$$

Now consider a different molecule.
In: So what's the measured TGI for this one? O=[N+]([O-])c1ccc(Sc2ccncn2)c([N+](=O)[O-])c1
Out: 15.8

---

Tested on: MCF7 breast
Test: NCI tumour cell line growth inhibition, 48 h
Below, each entry is listed alongside its reported TGI.
Write the value in µM as a bare number.

>  <COMPOUND>
CCOC(=O)c1cc(C2CCN(Cc3ccccc3)C2=S)c(C(=O)C=[N+]=[N-])[nH]1 (stereo unspecified)

>  <ENDPOINT VALUE>
40.4

$$$$
>  <COMPOUND>
O=C1c2ccccc2C(=O)c2c(NCCCN3CCOCC3)ccc(NCCCN3CCOCC3)c21

>  <ENDPOINT VALUE>
24.4

$$$$
>  <COMPOUND>
COC1=CC(=O)C2=C(C[C@@]3(C)C(=C2)C(CO)=CC[C@H]3O)C1=O

>  <ENDPOINT VALUE>
32.3

$$$$
>  <COMPOUND>
COc1cccc(-c2c(-c3ccccc3)[nH]c(C)c2C(=O)ONC(=O)c2ccccc2)c1

>  <ENDPOINT VALUE>
24

$$$$
>  <COMPOUND>
CC(C)[C@@H](C)[C@@]1(C)C[C@@H]1[C@@H](C)[C@H]1CC[C@@H]([C@@H]2CC=C3C[C@@H](O)CC[C@]3(C)C2=O)[C@]1(C)CCO

>  <ENDPOINT VALUE>
22.8

$$$$

In: So what's the measured TGI for this one? Cc1cc(=O)oc2cc(OC/C=C3\CCC(=O)O3)ccc12
Out: 27.6

In: So what's the measured TGI for this one? CN(C)CCOC(=O)Nc1nc2ccc(Sc3ccccc3)cc2[nH]1
Out: 15.2

In: So what's the measured TGI for this one? CCCN1CCC(c2ccc(Nc3nc(Nc4cc(F)ccc4C(N)=O)c4cc[nH]c4n3)c(OC)c2)CC1
Out: 4.23

---

Below, each entry is listed alongside its reported TGI.
Tested on: LOX IMVI melanoma
Experiment: NCI tumour cell line growth inhibition, 48 h
Write the value in µM as a bare number.

Solved cases (9 shown):
>  <MOLECULE>
O=C(C/C=C/c1ccccc1)c1ccccc1

>  <ENDPOINT VALUE>
30.3

$$$$
>  <MOLECULE>
C#Cc1cccc(NC(=O)c2ccc(NC(=O)CCl)cc2)c1

>  <ENDPOINT VALUE>
23.5

$$$$
>  <MOLECULE>
CC(=O)OCC1OC(n2nc(Cc3ccccc3)c(=S)[nH]c2=S)C(OC(C)=O)C(OC(C)=O)C1OC(C)=O (centres undefined)

>  <ENDPOINT VALUE>
41.9

$$$$
>  <MOLECULE>
O=[N+]([O-])C(=C/c1cccs1)/C(=C\c1cccs1)[N+](=O)[O-]

>  <ENDPOINT VALUE>
0.688

$$$$
>  <MOLECULE>
O=C1/C(=C/c2ccc(Cl)cc2)CSC/C1=C\c1ccc(Cl)cc1

>  <ENDPOINT VALUE>
5.3

$$$$
>  <MOLECULE>
O=C(NCCCN1CCN(CCCNC(=O)Nc2cccc3ccccc23)CC1)Nc1cccc2ccccc12

>  <ENDPOINT VALUE>
20.7

$$$$
>  <MOLECULE>
O=c1cc(-c2ccccc2)[nH]c2cc(Cl)ccc12

>  <ENDPOINT VALUE>
21.7

$$$$
>  <MOLECULE>
Nc1ccc(Sc2c3ccccc3nc3ccccc23)cc1

>  <ENDPOINT VALUE>
13.9

$$$$
>  <MOLECULE>
O=c1c(Cl)cc2nc3ccccc3sc-2c1Cl

>  <ENDPOINT VALUE>
43

$$$$

In: So what's the measured TGI for this one? COc1cc2c(cc1C)NC(=O)/C2=C\c1c[nH]c2ccccc12
Out: 29.3

---

Tested on: NCI-H226 lung
Experiment: NCI tumour cell line growth inhibition, 48 h
Below, each entry is listed alongside its reported GI50.

Solved cases (3 shown):
>  <MOLECULE>
O=[N+]([O-])c1ccc(Sc2ccncn2)c([N+](=O)[O-])c1

>  <ASSAY TARGET>
NCI-H226 lung

>  <ENDPOINT VALUE>
7.22 µM

$$$$
>  <MOLECULE>
COC1=CC(=O)c2nc(Cl)ccc2C1=O

>  <ASSAY TARGET>
NCI-H226 lung

>  <ENDPOINT VALUE>
7.61 µM

$$$$
>  <MOLECULE>
Cc1cc(Cl)cc(Cc2cc(Cl)cc(C)c2O)c1O

>  <ASSAY TARGET>
NCI-H226 lung

>  <ENDPOINT VALUE>
4.17 µM

$$$$

In: So what's the measured GI50 for this one? CC1=C([Se]CC(OC(=O)[C@@H](CO)NC(=O)OC(C)(C)C)C(=O)NCCCCCC(=O)OCc2ccccc2)C(=O)c2ccccc2C1=O (stereo not given in full)
Out: 2.25 µM

In: So what's the measured GI50 for this one? CN(C)c1ccc(N=C2C=CC(=O)c3ccccc32)cc1
Out: 18.2 µM

---

Below, each entry is listed alongside its reported GI50.
Tested on: RPMI-8226 leukemia
Assay: NCI tumour cell line growth inhibition, 48 h

In: So what's the measured GI50 for this one? Cc1ccc(OCC2OC(n3cnc4c(Br)nc(Br)nc43)CC2Oc2ccc(C)cc2)cc1 (stereo not drawn)
Out: 7.52 µM

In: So what's the measured GI50 for this one? COc1cccc2c1C(=O)c1c(O)c3c(c(O)c1C2=O)C[C@@](O)(C(=O)CO)CC3OC1CC(NCCCC(OC(C)=O)OC(C)=O)C(O)C(C)O1 (stereo partly drawn)
Out: < 0.0001 µM

In: So what's the measured GI50 for this one? [CH3][Sn]([CH3])([CH3])[O][N+](=O)[O-]
Out: 4.98 µM

In: So what's the measured GI50 for this one? Cc1nccc2c3ccc(OCc4cn(-c5ccc(Cl)cc5)nn4)cc3n(CC(C)C)c12
Out: 1.09 µM

In: So what's the measured GI50 for this one? C1C[OH+]CC[OH+]CCNCC[OH+]CC[OH+]CCN1.Cl.[Cl-].[Pt+4]
Out: > 100 µM

In: So what's the measured GI50 for this one? COc1ccc(N(C)c2nc(Cl)nc3cnn(C)c23)cc1
Out: < 0.0177 µM

In: So what's the measured GI50 for this one? C=CCc1c(O)c(C(=O)/C=C/c2ccccc2)c(OC)c2ccoc12
Out: 1.88 µM
